Test system: rodent lifetime carcinogenesis bioassay, tumor incidence TD50
Assay Protocol: carcinogenic potency in animals, long-term in vivo studies, CPDB compilation (AID 1745844)
Condition Details: mouse; strain Swiss albino; males; by gavage; site: preputial gland; lesion: several types; types named in the paper; dosed 52 weeks; study length 79 weeks
Parameter Measured: TD50

smiles_repr=CC=NN(C)C=O assay_result="1.61 mg/kg/day"

###

Tested on: rodent lifetime carcinogenesis bioassay, tumor incidence TD50
Assay Protocol: carcinogenic potency in animals, long-term in vivo studies, CPDB compilation (AID 1745844)
Condition Details: mouse; strain Charles River CD1; females; inhaled; site: lung; lesion: alveolar/bronchiolar carcinoma; dosed 98 weeks; study length 98 weeks
Parameter Measured: TD50

smiles_repr=C=Cc1ccccc1 assay_result="1300 mg/kg/day"

Hey, just so you know, these numbers are from PubChem BioAssay AID1745844.
